B1: 5KPH (parent)
chain: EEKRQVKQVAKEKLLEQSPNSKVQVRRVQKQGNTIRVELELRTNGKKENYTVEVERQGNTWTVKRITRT

Variants of: B1
Assay: folding stability dG (cDNA display proteolysis); higher = more stable
Conditions: PBS, room temperature
experimental-readout: folding stability dG (kcal/mol)
Your answer is read as kcal/mol, so omit the unit and give the number.

| mutation-string | endpoint-unit | folding stability dG |
| --- | --- | --- |
| T60M | kcal/mol | 4 |
| K7C | kcal/mol | 4.11 |
| V54F | kcal/mol | 4.06 |

Return reported folding stability dG; argument: Q29E
3.96

Follow-up entry: N49H
4.04

Follow-up entry: E53L
4.04

Follow-up entry: Q5A
3.93
